Reference source: patent US20100292178A1

Assay: Pharmacokinetics of a single oral dose of berberine in human patients
Assay type: in vivo
Settings: human, plasma, po, 300 mg orally, read-out: time to peak plasma concentration, tmax
Measurement kind: Tmax (h)

| Compound string | Measurement kind | Obs value |
| --- | --- | --- |
| COc1ccc2cc3[n+](cc2c1OC)CCc1cc2c(cc1-3)OCO2 | Tmax | 2.37 |

---

Conditions: rabbit, in vivo, po

| Compound | apparent drug distribution volume (Vd) (L/kg) |
| --- | --- |
| COc1ccc2cc3[n+](cc2c1OC)CCc1cc2c(cc1-3)OCO2 [berberine] | 20 |
